system: SK-MEL-2; experiment: NCI tumour cell line growth inhibition, 48 h
Calls of active or inactive are those of the source. Cut-off read from the data, not from the text of the source: active = GI50 up to about 1.1 µM and inactive = higher.
Labels: active, inactive

COMPOUND: COc1ccc(C2S/C(=C\c3ccccc3O)C(=O)N2NC(=O)Cc2ccccc2)cc1 (centres undefined)
GROUP: inactive
--
COMPOUND: Cc1cc(OP2(=O)NCc3ccncc3O2)ccc1Cl (centres undefined)
GROUP: inactive
--
COMPOUND: COC(=O)c1ccc(NC(=O)c2cc(OC)c(OC)c(OC)c2)cc1
GROUP: active
--
COMPOUND: COC1C(OC(=O)/C=C/C=C/C=C/C=C\C(=O)O)CCC2(CO2)C1C1(C)OC1CC=C(C)C (centres undefined)
GROUP: inactive
--
COMPOUND: S=C(S)N1CCN(c2ccccc2)CC1
GROUP: inactive
--
COMPOUND: O=C(N[C@@H]1C=CCC[C@@H]1c1ccccc1)OCc1ccccc1
GROUP: inactive
--
COMPOUND: COc1ccc(/N=N/C(=N/NC(=O)c2cc(Cl)ccc2C(=O)c2ccccc2)c2ccc(N(CCC#N)CCC#N)cc2C)cc1
GROUP: inactive
--
COMPOUND: Cn1c(-c2cccc([N+](=O)[O-])c2)[n+](C)c2ccccc21
GROUP: inactive
--
COMPOUND: O=Cc1ccc(-c2cccs2)s1
GROUP: inactive
--
COMPOUND: Cc1ccc(S(=O)(=O)NC(=O)NC(CCCCNC(=N)N)C(=O)O)cc1 (centres undefined)
GROUP: inactive
--
COMPOUND: COc1cc(C2C(C(=O)NCc3ccccc3)=C(C)NC(C)=C2C(=O)NCc2ccccc2)ccc1O
GROUP: inactive
--
COMPOUND: Cc1ccc2nc3ccccc3c(C3C4C(=O)N(c5ccc(F)cc5)C(=O)C4ON3C(C(N)=O)c3ccccc3)c2c1 (centres undefined)
GROUP: inactive
--
COMPOUND: COc1cccc(/C=C2\C(=O)N(C(=O)Cc3ccccc3)N=C2C)c1
GROUP: inactive
--
COMPOUND: O=C(O)CC(Cc1ccccc1Cl)C(=O)O (centres undefined)
GROUP: inactive
--
COMPOUND: CSc1c(C#N)c(O)n(-c2ccc(C)cc2)c(=O)c1C(C)=O
GROUP: inactive
--
COMPOUND: C=C1C(=O)O[C@@H]2C[C@@]3(C)[C@H](O)CCC(=C)[C@@H]3C[C@H]12 [ASPERILIN]
GROUP: inactive
--
COMPOUND: CCOc1ccc(NC(=O)C(=O)CC(=O)c2c(C)[n+]([O-])c3ccccc3[n+]2[O-])cc1
GROUP: inactive
--
COMPOUND: Nc1c([N+](=O)[O-])cc2c3c(cccc13)CC2
GROUP: inactive
--
COMPOUND: O/N=C\C(=N/O)Nc1ccc(Cc2ccc(NC(/C=N\O)=N/O)cc2)cc1
GROUP: inactive
--
COMPOUND: COc1ccc(OCC(C)(C)O)cc1
GROUP: inactive
--
COMPOUND: COc1cc([C@@H]2c3cc4c(cc3[C@@H](OC(=O)c3ccccc3)C3COC(=O)[C@@H]32)OCO4)cc(OC)c1O (some centres undefined)
GROUP: active
--
COMPOUND: CCN(CCO)C(=O)C1(c2ccccc2)CCCCC1
GROUP: inactive
--
COMPOUND: COc1ccc(N(C)C(=O)N(C)c2ccc([N+](=O)[O-])cc2)cc1
GROUP: inactive
--
COMPOUND: Cc1ccc(-c2cc(-c3ccc(Cl)cc3)nc(/N=C3\C(=O)N(CN4CCOCC4)c4ccc(Cl)cc43)n2)cc1
GROUP: inactive
--
COMPOUND: O=c1cc(N2CCOCC2)[nH]c(=O)n1-c1cccc(Cl)c1
GROUP: inactive
--
COMPOUND: CC1=NN(c2cccc(Cl)c2)C2(C1)C(Cl)C(=O)N2c1nc2ccccc2s1 (centres undefined)
GROUP: inactive
--
COMPOUND: COc1ccc(/N=C\c2cc(OC)c(OC)c(OC)c2)cc1
GROUP: inactive
--
COMPOUND: CN(C)C(c1ccccc1)C1COC2Cc3ccccc3C1O2 (centres undefined)
GROUP: inactive
--
COMPOUND: Cc1cnc2nc(-c3ccc4ccccc4c3)cc(O)c2c1
GROUP: inactive

Numbers sourced from ChEMBL document CHEMBL1201862.
